Reference for the values: the NIST ThermoML archive (doi:10.1021/je800497u)

# viscosity listing for each entry below
- protocolConditions: 298.15 K; 101 kPa; Liquid
Numbers after ± are expanded uncertainties.
attributeMeasured: viscosity

# molecule, obsValue
measured = [
    ("CCCCCCCO [heptan-1-ol]", "5.993 ± 0.12 mPa·s"),
    ("CCCO [propan-1-ol]", "1.966 ± 0.045 mPa·s"),
    ("CCCCCCCCCCCO [1-undecanol]", "14.02 ± 0.25 mPa·s"),
    ("CCCCCCCCCO [nonan-1-ol]", "9.671 ± 0.18 mPa·s"),
    ("CCCCCO [pentan-1-ol]", "3.494 ± 0.077 mPa·s"),
]

---

# mass density listing for each entry below
- protocolConditions: 298.15 K; 101 kPa; Liquid
± gives the expanded uncertainty stated by the source.
attributeMeasured: mass density

# itemSmiles, obsValue
records = [
    ("CCCCCO", "811 ± 0.6 kg/m3"),
    ("CCCCCCCO", "818.7 ± 0.6 kg/m3"),
    ("CCCCCCCCCCCO", "829 ± 0.6 kg/m3"),
    ("CCCCCCCCCO", "824.4 ± 0.7 kg/m3"),
    ("CCCO", "799.6 ± 0.7 kg/m3"),
]

---

- protocolConditions: 293.15 K; 101 kPa; Liquid
viscosity vs 10 mPa·s: less than gives 1.0; not less than gives 0.0.

# compound, class
data = [
    ("CCCCCCCCCCCO [1-undecanol]", 0.0),
    ("CCCCCCCCCO [nonan-1-ol]", 0.0),
    ("CCCCCO [pentan-1-ol]", 1.0),
    ("CCCCCCCO [heptan-1-ol]", 1.0),
    ("CCCO [propan-1-ol]", 1.0),
]

---

- protocolConditions: 293.15 K; 101 kPa; Liquid
± gives the expanded uncertainty stated by the source.
attributeMeasured: mass density

# itemSmiles, obsValue
rows = [
    ("CCCO", "803.5 ± 0.7 kg/m3"),
    ("CCCCCCCCCO", "827.9 ± 0.7 kg/m3"),
    ("CCCCCCCO", "822.2 ± 0.6 kg/m3"),
    ("CCCCCO", "814.6 ± 0.6 kg/m3"),
    ("CCCCCCCCCCCO", "832.5 ± 0.6 kg/m3"),
]
